Just for reference, patent US8476265B2 is where these values come from.

target: Adrenergic β2 (Homo sapiens, UniProt P07550); construct: Adherent H292 cells are removed from tissue culture flasks by treatment with Accutase™ cell detachment solution; endogenous in cells; host or cells: H292 cells; experiment: Adrenergic β2 mediated cAMP production in H292 cells (AlphaScreen), concentration response; type: cell-based; details: fraction relative to the maximum activity determined for formoterol
Sequence (P07550 whole entry): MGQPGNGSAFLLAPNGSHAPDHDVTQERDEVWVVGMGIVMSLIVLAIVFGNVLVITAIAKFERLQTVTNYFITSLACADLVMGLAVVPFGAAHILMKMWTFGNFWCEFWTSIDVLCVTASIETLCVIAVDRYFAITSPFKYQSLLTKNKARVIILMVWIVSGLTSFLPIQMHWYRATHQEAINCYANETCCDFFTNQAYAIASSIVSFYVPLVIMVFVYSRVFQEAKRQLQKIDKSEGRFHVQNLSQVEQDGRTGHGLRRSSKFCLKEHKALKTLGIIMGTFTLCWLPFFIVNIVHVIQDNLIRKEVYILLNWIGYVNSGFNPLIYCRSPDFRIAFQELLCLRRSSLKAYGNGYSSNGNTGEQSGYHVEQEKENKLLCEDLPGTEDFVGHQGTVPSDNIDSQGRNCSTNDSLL
Parameter threshold = 0.8. Response is 1 when β2 Intrinsic Activity meets or exceeds it, else -1.

>  <molecule>
CCN(CCNCCc1ccc(O)c2[nH]c(=O)sc12)C(=O)CCOCCc1ccc(CCN2CCC3(CC2)CN(C(=O)c2csc(C(C)C)n2)CCO3)s1 [Example 52, ditrifluoroacetate]

>  <assigned-category>
1

$$$$
>  <molecule>
CC(C)(C)c1nc(C(=O)N2CCOC3(CCN(Cc4cccc(CCOCCC(=O)N(CCNCCc5ccc(O)c6c5OCC(=O)N6)C5CCCCC5)c4)CC3)C2)cs1

>  <assigned-category>
1

$$$$
>  <molecule>
CCN(CCNCCc1ccc(O)c2[nH]c(=O)sc12)C(=O)CCOCCc1ccc(CCN2CCC3(CC2)CN(C(=O)c2csc(C(C)C)n2)CCO3)cc1 [Example 1, ditrifluoroacetate]

>  <assigned-category>
-1

$$$$
>  <molecule>
CCN(CCNCCc1ccc(O)c2c1OCC(=O)N2)C(=O)CCOCCc1cccc(CN2CCC3(CC2)CN(C(=O)c2csc(C(C)C)n2)CCO3)c1F [Example 15, ditrifluoroacetate]

>  <assigned-category>
-1

$$$$
>  <molecule>
O=C1COc2c(CCNCCN(C(=O)CCOCCc3cccc(CN4CCC5(CC4)CN(C(=O)c4ccc6sccc6c4)CCO5)c3)C3CCCCC3)ccc(O)c2N1

>  <assigned-category>
1

$$$$
>  <molecule>
O=C1COc2c(CCNCCN(C(=O)CCOCCc3cccc(CN4CCC5(CC4)CN(C(=O)c4csc(-c6ccccc6)n4)CCO5)c3)C3CCCCC3)ccc(O)c2N1

>  <assigned-category>
1

$$$$

Exam item: decide whether the reported β2 Intrinsic Activity for Cc1csc(C(=O)N2CCOC3(CCN(Cc4cccc(CCOCCC(=O)N(CCNCCc5ccc(O)c6c5OCC(=O)N6)C5CCCCC5)c4)CC3)C2)c1 is at least 0.8.
1

Exam item: decide whether the reported β2 Intrinsic Activity for O=C1COc2c(CCNCCN(C(=O)CCOCCc3cccc(CN4CCC5(CC4)CN(C(=O)C4COc6ccccc6O4)CCO5)c3)C3CCCCC3)ccc(O)c2N1 (centres unmarked) is at least 0.8.
-1

Exam item: decide whether the reported β2 Intrinsic Activity for CC(C)c1nc(C(=O)N2CCOC3(CCN(Cc4cc(F)cc(CCOCCC(=O)N(CCNCCc5ccc(O)c6c5OCC(=O)N6)C5CCCCC5)c4)CC3)C2)cs1 [Example 47, ditrifluoroacetate] is at least 0.8.
1

Exam item: decide whether the reported β2 Intrinsic Activity for O=C1COc2c(CCNCCN(C(=O)CCOCCc3cccc(CN4CCC5(CC4)CN(C(=O)c4ccc(C(F)(F)F)cn4)CCO5)c3)C3CCCCC3)ccc(O)c2N1 is at least 0.8.
1
